Attribution: ChEMBL document CHEMBL6182907

- experiment: Metabolic stability in human liver microsome assessed as intrinsic clearance at 1 uM measured up to 120 mins by LC/MS analysis
- Format: ADME
- assayContext: liver microsomes, read-out: CLH
endpoint: CLint scaled at 1 µM

What value of measured CLint scaled at 1 µM is listed for O=C1c2cc(Cc3cc(F)cc(F)c3)nn2CC[C@H](CO)N1Cc1ccc(C(F)(F)F)cc1 ?
16.3 mL/min/kg

----------
- experiment: Metabolic stability in human liver microsome assessed as half life at 1 uM by LC/MS analysis
- Type: ADME
- assayContext: liver microsomes
endpoint: half-life at 1 µM (h)
Dear colleague, please return just the value in h, with no unit written.

What value of measured half-life at 1 µM is listed for O=C1c2cc(Cc3cc(F)cc(F)c3)nn2CC[C@H](CO)N1Cc1ccc(C(F)(F)F)cc1 ?
1.42
